Value source: ChEMBL document CHEMBL1128134

- Subject Of Test: Calpain 1 (Homo sapiens) (UniProt P04632+P07384)
- Assay Details: Apparent second order rate constant for inhibition of calpain-1 by fluorogenic assay.
- Format: protein-complex assay
Peptide text beside a SMILES is read from it. * marks the point of attachment. Cbz = O=C(OCc1ccccc1)*; CH2Cl = ClC*
Result Type: k obs / 1 (M⁻¹ s⁻¹)

COC(=O)N[C@H](C)C(=O)NC(CC(C)C)C(=O)NC(Cc1ccccc1)C(=O)COC(=O)c1c(Cl)ccc(OCCN2CCOCC2)c1Cl (some centres undefined); 43000

(P) CC(C)C[C@H](NC(=O)CNC(=O)OCc1ccccc1)C(=O)N[C@@H](Cc1ccccc1)C(=O)CCl (Cbz-Gly-Leu-Phe-CH2Cl)
(Q) Cc1ccc(S(=O)(=O)NC(CC(C)C)C(=O)NC(Cc2ccccc2)C(=O)COC(=O)c2c(F)cccc2F)cc1 (centres undefined)
When P and Q are compared, which has the higher number for k obs / 1? // output: label of the selected item
P

###

- Subject Of Test: Calpain-1 catalytic subunit (Homo sapiens)
- Assay Details: Rate of catalysis as a measure of ability to serve as substrate of Calpain
Result Type: k cat (s⁻¹)

Cc1cc(=O)oc2cc(NC(=O)[C@@H](Cc3ccc(O)cc3)NC(=O)[C@H](NC(=O)[C@H](CC(C)C)NC(=O)[C@H](CC(C)C)NC(=O)CCC(=O)O)C(C)C)ccc12; 0.42

(I) COc1ccc2cccc(NC(=O)[C@H](CCCN=C(N)N)NC(=O)[C@H](CC(C)C)NC(=O)OCc3ccccc3)c2c1
(II) CC(C)C[C@H](NC(=O)OCc1ccccc1)C(=O)N[C@@H](CCCN=C(N)N)C(=O)Nc1ccc2c(C(F)(F)F)cc(=O)oc2c1
API: POST /compare with I and II ; response names the item with higher k cat. Reply briefly: the label of your chosen item.
I
(I: 0.52 s⁻¹, II: 0.07 s⁻¹)

###

- Subject Of Test: Calpain 1 (Homo sapiens) (UniProt P04632+P07384)
- Assay Details: Apparent second order rate constant for inhibition of calpain-1 by fluorogenic assay.
- Format: protein-complex assay
Peptide text beside a SMILES is read from it. * marks the point of attachment. Cbz = O=C(OCc1ccccc1)*; CH2Cl = ClC*
Result Type: k obs / 1 (M⁻¹ s⁻¹)

A selection of reference data follows.
CC(C)C(NC(=O)OCc1ccccc1)C(=O)NCC(=O)COC(=O)c1c(Cl)ccc(S(=O)(=O)NCC(=O)OCc2ccccc2)c1Cl (centres undefined); 12000
CC(C)CC(NC(=O)OCc1ccccc1)C(=O)NC(Cc1ccccc1)C(=O)COC(=O)c1c(Cl)cccc1Cl (centres undefined); 11000
NC(=O)CC(NC(=O)OCc1ccccc1)C(=O)NC(Cc1ccccc1)C(=O)CCl (stereo not drawn) (Cbz-Asn-Phe-CH2Cl; configuration not given here); 600
CC(C)C[C@H](NC(=O)[C@@H]1CCCN1C(=O)OCc1ccccc1)C(=O)N[C@@H](Cc1ccccc1)C(=O)COC(=O)c1c(F)cccc1F; 26500
CC(C)CC(NC(=O)OCc1ccccc1)C(=O)NC(Cc1ccccc1)C(=O)COC(=O)c1c(Cl)ccc(S(=O)(=O)N2CCOCC2)c1Cl (centres undefined); 17000

(A) CC(C)C[C@H](NC(=O)OCc1ccccc1)C(=O)N[C@@H](CC(C)C)C(=O)N[C@@H](Cc1ccccc1)C(=O)CCl (Cbz-Leu-Leu-Phe-CH2Cl)
(B) CC(C)CC(NC(=O)[C@@H](C)NC(=O)OCc1ccccc1)C(=O)NC(Cc1ccccc1)C(=O)COC(=O)c1c(Cl)ccc(OCCN2CCOCC2)c1Cl (some centres undefined)
(C) O=C(CNC(=O)OCc1ccccc1)NC(Cc1ccccc1)C(=O)COC(=O)c1c(Cl)cccc1Cl (centres undefined)
(D) CC(C)C[C@H](NC(=O)[C@H](C)NC(=O)OCc1ccccc1)C(=O)N[C@@H](Cc1ccccc1)C(=O)COC(=O)c1c(F)cccc1F
Order the records, beginning with the lowest k obs / 1 and ending with the highest. Thanks in advance for listing the labels in the requested order.
C, A, D, B
(C: 700 M⁻¹ s⁻¹, A: 9500 M⁻¹ s⁻¹, D: 19000 M⁻¹ s⁻¹, B: 32000 M⁻¹ s⁻¹)

###

- Subject Of Test: Calpain 1 (Homo sapiens) (UniProt P04632+P07384)
- Assay Details: Apparent second order rate constant for inhibition of calpain-1 by fluorogenic assay.
- Format: protein-complex assay
Result Type: k obs / 1 (M⁻¹ s⁻¹)

Use these answered entries as a reference point.
CC(C)CC(NC(=O)OCc1ccccc1)C(=O)NCC(=O)COC(=O)c1c(Cl)ccc(OCCN2CCOCC2)c1Cl (stereo not drawn); 6000
CC(C)C(NC(=O)OCc1ccccc1)C(=O)NC(Cc1ccccc1)C(=O)COC(=O)c1c(Cl)ccc(S(=O)(=O)CCN2CCOCC2)c1Cl (stereo not drawn); 20000
CC(C)CC(NC(=O)OCc1ccccc1)C(=O)NCC(=O)COC(=O)c1c(Cl)cccc1Cl (stereo not drawn); 6000
CC(C)CC(NC(=O)OCc1ccccc1)C(=O)NC(Cc1ccc(O)cc1)C(=O)COC(=O)c1c(F)cccc1F (stereo not drawn); 7000

(1) CC(C)CC(NC(=O)OCc1ccccc1)C(=O)NC(C)C(=O)CCl (stereo not drawn)
(2) CC(C)CC(NC(=O)CNC(=O)OCc1ccccc1)C(=O)NC(Cc1ccccc1)C(=O)COC(=O)c1c(F)cccc1F (stereo not drawn)
(3) CC(C)CC(NC(=O)[C@@H](Cc1ccccc1)NC(=O)OCc1ccccc1)C(=O)NC(Cc1ccccc1)C(=O)COC(=O)c1c(F)cccc1F (stereo partly drawn)
Could you please order the items by k obs / 1, going from the lowest number to the highest? # format: label list in the order the request specifies
3, 1, 2

###

- Subject Of Test: Cathepsin B (Homo sapiens) (UniProt P07858)
- Assay Details: Apparent second order rate constant for inhibition of cathepsin B by fluorogenic assay.
Result Type: k obs / 1 (M⁻¹ s⁻¹)

CC(C)CC(NC(=O)OCc1ccccc1)C(=O)NC(Cc1ccccc1)C(=O)COC(=O)c1c(Cl)ccc(S(=O)(=O)CCN2CCOCC2)c1Cl (configuration not stated); 80
CC(C)CC(NC(=O)CNC(=O)OCc1ccccc1)C(=O)NC(Cc1ccccc1)C(=O)COC(=O)c1c(F)cccc1F (configuration not stated); 800
CC(C)CC(NC(=O)OCc1ccccc1)C(=O)NC(Cc1ccc(O)cc1)C(=O)COC(=O)c1c(Cl)cccc1Cl (configuration not stated); 1600
CC(C)C[C@H](NC(=O)[C@@H]1CCCN1C(=O)OCc1ccccc1)C(=O)N[C@@H](Cc1ccccc1)C(=O)COC(=O)c1c(F)cccc1F; 11000

(P) CC(C)CC(NC(=O)OCc1ccccc1)C(=O)NC(Cc1ccccc1)C(=O)COC(=O)c1c(Cl)cccc1Cl (configuration not stated)
(Q) CC(NC(=O)C(Cc1ccccc1)NC(=O)OCc1ccccc1)C(=O)COC(=O)c1c(Cl)cccc1Cl (configuration not stated)
Rank P against Q by their k obs / 1 values and give the higher one. Answer with the label corresponding to your selection.
Q

###

- Subject Of Test: Calpain 1 (Homo sapiens) (UniProt P04632+P07384)
- Assay Details: Apparent second order rate constant for inhibition of calpain-1 by fluorogenic assay.
- Assay type: protein-complex assay
Result Type: k obs / 1 (M⁻¹ s⁻¹)

CC(C)CC(NC(=O)[C@@H](C)NC(=O)OCc1ccccc1)C(=O)NC(Cc1ccccc1)C(=O)COC(=O)c1c(F)cccc1F (stereo partly drawn); 31000

(a) CC(C)C(NC(=O)OCc1ccccc1)C(=O)NCC(=O)COC(=O)c1c(Cl)cccc1Cl (stereo not drawn)
(b) CC(C)CC(NC(=O)OCc1ccccc1)C(=O)NC(C)C(=O)COC(=O)c1c(Cl)ccc(OCCN2CCOCC2)c1Cl (stereo not drawn)
Which item exceeds the other in k obs / 1, a or b ? // output: label of the selected item
b

(P) CC(C)CC(NC(=O)OCc1ccccc1)C(=O)NC(Cc1ccc(O)cc1)C(=O)COC(=O)c1c(Cl)cccc1Cl (stereo not drawn)
(Q) CC(C)CC(NC(=O)OCc1ccccc1)C(=O)NC(Cc1ccccc1)C(=O)COC(=O)c1c(F)cccc1F (stereo not drawn)
Which shows the larger k obs / 1 value: P or Q ? // respond with label for picked entry
P

(1) COC(=O)N[C@H](C)C(=O)NC(CC(C)C)C(=O)NC(Cc1ccccc1)C(=O)COC(=O)c1c(F)cccc1F (stereo partly drawn)
(2) CC(C)C(NC(=O)OCc1ccccc1)C(=O)NC(Cc1ccccc1)C(=O)COC(=O)c1c(Cl)cccc1Cl (stereo not drawn)
Of the pair 1 and 2 , name the member with the lesser recorded k obs / 1. Answer format: the label of the selected item.
1

###

- Subject Of Test: Calpain 1 (Homo sapiens) (UniProt P04632+P07384)
- Assay Details: Apparent second order rate constant for inhibition of calpain-1 by fluorogenic assay.
- Type: protein-complex assay
Square brackets hold non-standard residues; d marks the D form. Peptide text beside a SMILES is read from it. * marks the point of attachment. ξ: configuration not given here. Cbz = O=C(OCc1ccccc1)*; ξL = CC(C)CC(N)C(=O)O; CH2Cl = ClC*
Result Type: k obs / 1 (M⁻¹ s⁻¹)

Worked set:
Cc1cccc(C)c1C(=O)OCC(=O)C(Cc1ccccc1)NC(=O)C(NC(=O)OCc1ccccc1)C(C)C (stereo not given); 700
CC(C)CC(NC(=O)OCc1ccccc1)C(=O)NC(Cc1ccc(O)cc1)C(=O)COC(=O)c1c(Cl)ccc(S(=O)(=O)CCN2CCOCC2)c1Cl (stereo not given); 54000
CC(C)CC(NC(=O)OCc1ccccc1)C(=O)NCC(=O)CCl (stereo not given) (Cbz-[ξL]-Gly-CH2Cl); 31000

(A) CC(C)CC(NC(=O)OCc1ccccc1)C(=O)NC(C)C(=O)COC(=O)c1c(Cl)ccc(S(=O)(=O)N2CCOCC2)c1Cl (stereo not given)
(B) CC(C)CC(NC(=O)OCc1ccccc1)C(=O)NC(Cc1ccccc1)C(=O)COC(=O)c1c(Cl)ccc(S(=O)(=O)CCN2CCOCC2)c1Cl (stereo not given)
Looking at A and B , which one comes out lower in k obs / 1 terms? Answer = label.
A
